Data origin: patent US20250059174A1

- measurement target: Recombinant human c-KIT kinase (Homo sapiens (Human))
- protocol details: c-KIT kinase chemiluminescence assay (ADP-Glo)
- Format: biochemical
- assay setup: ATP 50 μM
Form field: IC50 (one value per entry).
attribute measured: IC50

smi	attribute measured	endpoint value
Cc1ccc(-c2noc([C@H]3C[C@@H]3F)n2)cc1NC(=O)c1cnc(-c2cccc(N3CC4(COC4)C3)c2)o1	IC50	100 to 1000 nM
Cc1ccc(-c2noc([C@H]3C[C@@H]3F)n2)cc1NC(=O)c1cnn2cc(-c3ccc(F)cc3)ccc12	IC50	< 100 nM
Cc1ccc(-c2noc(C3CN(C(=O)C4(F)CC4)C3)n2)cc1NC(=O)c1cnn2ccc(N3CC4(C3)CC(O)(C(F)F)C4)cc12	IC50	< 100 nM
Cc1ccc(-c2noc(C3CN(C(=O)OC4CC4)C3)n2)cc1NC(=O)c1cnc(-c2ccc3c(c2)CC(=O)N3)o1	IC50	100 to 1000 nM
Cc1ccc(-c2noc([C@H]3C[C@@H]3F)n2)cc1NC(=O)c1cnn2ccc(N3CC4(CNC(=O)C4)C3)cc12	IC50	< 100 nM
Cc1ccc(-c2noc([C@H]3C[C@@H](OC(F)F)C3)n2)cc1NC(=O)c1cnn2ccc(N3CC4(C3)CC(O)(C(F)(F)F)C4)cc12	IC50	< 100 nM

###

- System: M-07e cells
- protocol details: M-07e cellular assay (SCF-mediated cell proliferation)
- Format: cell-based
- assay setup: Homo sapiens, 72 hours, CellTiter Glo

smi	EC50
Cc1ccc(-c2noc([C@H]3C[C@@H]3F)n2)cc1NC(=O)c1cnc(-c2ccc3c(c2)C2(CCN(C(=O)OC(C)(C)C)CC2)C(=O)N3)o1	100 to 1000 nM
Cc1ccc(-c2noc([C@H]3C[C@@H]3F)n2)cc1NC(=O)c1cnc(-c2c(C)nn(CC(C)(C)O)c2C)o1	> 1000 nM
Cc1ccc(-c2noc([C@H]3C[C@@H]3F)n2)cc1NC(=O)c1cnn2ccc(N3CC(O)(C(F)(F)F)C3)cc12	< 100 nM
Cc1ccc(-c2noc([C@H]3C[C@@H]3F)n2)cc1NC(=O)c1cnn2ccc(N3CC[C@H](N)C3)cc12	100 to 1000 nM
Cc1ccc(-c2noc([C@H]3C[C@@H]3F)n2)cc1NC(=O)c1cnn2ccncc12	100 to 1000 nM
Cc1ccc(-c2noc([C@H]3C[C@@H]3F)n2)cc1NC(=O)c1cnn2c1CCC2	> 1000 nM
COCCn1cc(-c2ccc3c(C(=O)Nc4cc(-c5noc([C@H]6C[C@@H]6F)n5)ccc4C)cnn3c2)nn1	< 100 nM

###

Form field: EC50 (one value per entry).
- Test system: M-07e cells
- protocol details: M-07e cellular assay (SCF-mediated cell proliferation)
- Assay type: cell-based
- assay setup: Homo sapiens, 72 hours, CellTiter Glo

smi	measurement target	EC50
Cc1ccc(-c2noc([C@H]3C[C@@H]3F)n2)cc1NC(=O)c1cnn2ccc(N3CC(CO)(C(=O)O)C3)cc12	M-07e cells	> 1 µM
Cc1ccc(-c2noc([C@H]3C[C@@H]3F)n2)cc1NC(=O)c1cnn2ccc(N3C4COCC3C4)cc12	M-07e cells	< 0.1 µM
Cc1ccc(-c2noc([C@H]3C[C@@H]3F)n2)cc1NC(=O)c1cnc(-c2ccc3nnn(C)c3c2)o1	M-07e cells	0.1 to 1 µM
CC#Cc1ccc2c(C(=O)Nc3cc(-c4noc([C@H]5C[C@@H]5F)n4)c(F)cc3C)cnn2c1	M-07e cells	0.1 to 1 µM
Cc1ccc(-c2noc([C@H]3C[C@@H]3F)n2)cc1NC(=O)c1cnn2ccc(N3CC4(CNC(=O)C4)C3)cc12	M-07e cells	< 0.1 µM
Cc1ccc(-c2noc([C@H]3C[C@@H]3F)n2)cc1NC(=O)c1cnn2cc(-c3c(C)nn(CC(C)(C)O)c3C)ccc12	M-07e cells	< 0.1 µM
Cc1ccc(-c2noc([C@H]3C[C@@H]3F)n2)cc1NC(=O)c1cnc(N2CC(C(=O)NC3CC3)C2)s1	M-07e cells	> 1 µM
[2H]C([2H])([2H])n1nnc(-c2cnc(C)c(NC(=O)c3cnn4ccc(N5CC6(C5)CC(O)(C(F)F)C6)cc34)c2)n1	M-07e cells	< 0.1 µM
Cc1ccc(-c2noc([C@H]3C[C@@H]3F)n2)cc1NC(=O)c1cnn2cccnc12	M-07e cells	> 1 µM
Cc1ccc(-c2noc([C@H]3C[C@@H]3F)n2)cc1NC(=O)c1cnn2ccc(-c3ccc(N4CCOCC4)nc3C)cc12	M-07e cells	< 0.1 µM
Cc1ccc(-c2noc([C@H]3C[C@@H]3F)n2)cc1NC(=O)c1ccnc2ccccc12	M-07e cells	> 1 µM
Cc1ccc(-c2noc([C@H]3C[C@@H](OC(F)(F)F)C3)n2)cc1NC(=O)c1cnn2ccc(N3CC4CC(C3)O4)cc12	M-07e cells	< 0.1 µM
Cc1ccc(-c2nc3n(n2)CCN(C(=O)C2CC2)C3)cc1NC(=O)c1cnn2ccc(N3CC4(C3)CC(O)(C(F)F)C4)cc12	M-07e cells	> 1 µM
Cc1ccc(-c2noc([C@H]3C[C@@H](OC(F)F)C3)n2)cc1NC(=O)c1cnn2ccc(N3CC4(C3)CC(O)(C(F)(F)F)C4)cc12	M-07e cells	< 0.1 µM

###

- measurement target: Recombinant human c-KIT kinase (Homo sapiens (Human), UniProt P10721)
- Sequence (P10721 26-976): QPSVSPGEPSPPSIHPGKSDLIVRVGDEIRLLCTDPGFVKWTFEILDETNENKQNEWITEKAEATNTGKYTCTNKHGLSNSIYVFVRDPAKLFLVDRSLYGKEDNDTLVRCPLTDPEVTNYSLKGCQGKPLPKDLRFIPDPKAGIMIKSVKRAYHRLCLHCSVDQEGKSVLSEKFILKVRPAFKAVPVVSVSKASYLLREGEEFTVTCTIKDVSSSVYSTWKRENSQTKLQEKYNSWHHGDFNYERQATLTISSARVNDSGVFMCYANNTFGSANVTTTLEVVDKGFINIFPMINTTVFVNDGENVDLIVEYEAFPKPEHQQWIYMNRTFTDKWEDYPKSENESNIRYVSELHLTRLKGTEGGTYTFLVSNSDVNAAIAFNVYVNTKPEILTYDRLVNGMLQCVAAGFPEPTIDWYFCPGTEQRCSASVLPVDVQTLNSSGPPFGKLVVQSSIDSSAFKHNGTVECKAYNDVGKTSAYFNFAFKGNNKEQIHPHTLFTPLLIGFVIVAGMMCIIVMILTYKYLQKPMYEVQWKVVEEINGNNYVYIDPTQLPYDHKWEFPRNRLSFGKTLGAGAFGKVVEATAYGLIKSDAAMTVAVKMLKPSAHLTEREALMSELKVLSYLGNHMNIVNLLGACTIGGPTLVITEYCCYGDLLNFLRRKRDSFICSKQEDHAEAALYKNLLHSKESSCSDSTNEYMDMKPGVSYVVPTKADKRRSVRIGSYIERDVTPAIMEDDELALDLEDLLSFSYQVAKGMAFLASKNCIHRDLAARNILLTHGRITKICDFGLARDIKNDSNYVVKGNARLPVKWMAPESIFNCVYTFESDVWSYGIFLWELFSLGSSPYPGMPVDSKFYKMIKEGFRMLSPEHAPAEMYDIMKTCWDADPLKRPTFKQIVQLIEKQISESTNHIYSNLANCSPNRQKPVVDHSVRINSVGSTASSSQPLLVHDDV
- protocol details: c-KIT kinase chemiluminescence assay (ADP-Glo)
- assay setup: ATP 50 μM
- Experimental: The c-KIT Kinase Enzyme System (V4498) and ADP-Glo™ Kinase Assay kit (V6930) were purchased from Promega (Madison, WI). DMSO (D2650) was purchased from Sigma-Aldrich (Burlington, MA). […] ADP detection with ADP-Glo™ Kinase Assay: After the kinase reaction incubation, 5 μL of ADP-Glo™ reagent was added to all wells. […] Kinase activity was measured as increase in luminescence at RT in an Envision plate reader equipped with 560 nm filters and operating in endpoint mode. […]
pIC50: −log10 of the molar value.
Form field: pIC50 (one value per entry).

compound	pIC50
Cc1ccc(-c2noc([C@H]3C[C@@H](OC(F)F)C3)n2)cc1NC(=O)c1cnn2cc(-c3cn(C(F)(F)C(=O)O)nn3)ccc12 [Example 132-3]	> 7.00
Cc1nc(C)c(-c2ccn3ncc(C(=O)Nc4cc(-c5noc([C@H]6C[C@@H](OC(F)(F)F)C6)n5)ccc4C)c3c2)c(C)n1 [Example 171-5]	6.00 to 7.00
Cc1c(F)cc(-c2noc([C@H]3C[C@@H]3F)n2)cc1NC(=O)c1cnn2ccc(N3CC4(COC4)C3)cc12 [Example 281-54]	> 7.00

###

- measurement target: Recombinant human c-KIT kinase (Homo sapiens (Human))
- protocol details: c-KIT kinase chemiluminescence assay (ADP-Glo)
- Format: biochemical
- assay setup: ATP 50 μM
pIC50: −log10 of the molar value.

smi	pIC50
Cc1ccc(-c2noc([C@H]3C[C@@H]3F)n2)cc1NC(=O)c1cnn2ccc(N3CC4(CCN4)C3)cc12	> 7.00
Cc1ccc(-c2noc([C@H]3C[C@@H]3F)n2)cc1NC(=O)c1nnn2ccccc12	< 6.00
Cc1ccc(-c2noc([C@H]3C[C@H](OC(F)F)C3)n2)cc1NC(=O)c1cnn2ccc(N3CC4(COC4)C3)cc12	> 7.00
COC1(OC)CC2(CN(c3ccn4ncc(C(=O)Nc5cc(-c6noc([C@H]7C[C@@H]7F)n6)ccc5C)c4c3)C2)C1	> 7.00
Cc1ccc(-c2noc([C@H]3C[C@@H]3F)n2)cc1NC(=O)c1cnn(-c2ccccn2)c1	6.00 to 7.00
COC(=O)N1CC(c2nc(-c3ccc(C)c(NC(=O)c4cnn5ccc(N6CC7(COC7)C6)cc45)c3)no2)C1	> 7.00
Cc1ccc(-c2noc([C@H]3C[C@@H]3F)n2)cc1NC(=O)c1cnn2ccc(N3CCO[C@H](C)C3)cc12	> 7.00

###

- Tested on: M-07e cells
- protocol details: M-07e cellular assay (SCF-mediated cell proliferation)
- Format: cell-based
- assay setup: Homo sapiens, 72 hours, CellTiter Glo
attribute measured: EC50

compound	measurement target	endpoint value
Cc1ccc(-c2noc([C@H]3C[C@@H](OC(F)F)C3)n2)nc1NC(=O)c1cnn2ccc(N3CC4(COC4)C3)cc12 [Example 266]	M-07e cells	100 to 1000 nM
Cc1ccc(-c2noc([C@H]3C[C@@H]3F)n2)cc1NC(=O)c1cnc(-c2ccc(NC(=O)OC(C)(C)C)nc2)o1 [Example 298]	M-07e cells	100 to 1000 nM
Cc1ccc(-c2noc([C@H]3C[C@@H]3F)n2)cc1NC(=O)c1cnn2ccc(N3CC[C@@H](N)C3)cc12 [Example 197]	M-07e cells	< 100 nM
Cc1ccc(-c2noc([C@H]3C[C@@H]3F)n2)cc1NC(=O)c1cnn2ccc(C#N)cc12 [Example 127]	M-07e cells	100 to 1000 nM
Cc1ccc(-c2noc([C@H]3C[C@@H]3F)n2)cc1NC(=O)c1cn2ncsc2n1 [Example 97]	M-07e cells	> 1000 nM
[2H]C([2H])([2H])n1nnnc1-c1cnc(C)c(NC(=O)c2cnn3ccc(N4CC5(C4)CC(O)(C(F)F)C5)cc23)c1 [Example 312-3]	M-07e cells	> 1000 nM
Cc1ccc(-c2noc([C@H]3C[C@@H]3F)n2)cc1NC(=O)c1cnn2ccc(N3CCC34COC4)cc12 [Example 176]	M-07e cells	< 100 nM
Cc1ccc(-c2noc([C@H]3C[C@@H]3F)n2)cc1NC(=O)c1cnn2ccc(-c3c(C)nc(N)nc3C)cc12 [Example 171-6]	M-07e cells	< 100 nM
COC(=O)N1CC(c2nc(-c3cc(NC(=O)c4cnn5ccc(N6CC7(COC7)C6)cc45)c(C)cc3F)no2)C1 [Example 281-48]	M-07e cells	100 to 1000 nM
Cc1ncc(-c2ncc(C3CC3)cn2)cc1NC(=O)c1cnn2ccc(-c3c(C)nc(N)nc3C)cc12 [Example 371-1]	M-07e cells	100 to 1000 nM
Cc1ccc(-c2noc([C@H]3C[C@@H]3F)n2)cc1NC(=O)c1cnc(-c2cccnc2)o1 [Example 285]	M-07e cells	> 1000 nM
Cc1ccc(-c2noc([C@H]3C[C@@H]3F)n2)cc1NC(=O)c1cnn(C)c1 [Example 35]	M-07e cells	> 1000 nM
Cc1ccc(-c2noc(C3CCN(C(=O)[C@H]4C[C@@H]4F)CC3)n2)cc1NC(=O)c1cnn2ccc(N3CC4(C3)CC(O)(C(F)F)C4)cc12 [Example 281-97]	M-07e cells	100 to 1000 nM
Cc1ncc(-c2noc([C@H]3C[C@@H]3F)n2)cc1NC(=O)c1cnc(-c2ccc3c(c2)CC(=O)N3)o1 [Example 308-12]	M-07e cells	100 to 1000 nM
